Form field: pKd (one value per entry).
biological target: TSGP3 (Ornithodoros kalahariensis, UniProt Q8I9U0); assay: Isothermal titration calorimetry; assay type: binding
Sequence (Q8I9U0 20-163): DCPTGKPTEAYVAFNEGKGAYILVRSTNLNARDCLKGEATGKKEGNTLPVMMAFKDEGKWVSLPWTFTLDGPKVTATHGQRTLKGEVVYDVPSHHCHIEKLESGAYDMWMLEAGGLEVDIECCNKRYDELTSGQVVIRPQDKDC
# log scale: pKd equals minus log10 of the concentration in mol/L

Request - read-out pKd | tested on TSGP3 (Ornithodoros kalahariensis, UniProt Q8I9U0) | compound CCCCC[C@H](O)/C=C/C1CC2CC(C2)C1C/C=C\CCCC(=O)O (stereo partly shown)
8.30

Another: CCCCC[C@H](O)/C=C/[C@@H]1[C@@H](C/C=C\CCCC(=O)O)[C@H]2CO[C@@H]1C2
8.05

What about CCCCC/C=C\C[C@@H](O)/C=C/C=C/C=C\[C@@H](O)CCCC(=O)O ?
7.68

Another compound: CCCCC/C=C\C/C=C\C/C=C\C/C=C\CCCC(=O)O
7.23
